# credit: PubChem BioAssay (NCATS)

Test system: CP297
Measurement description: qHTS profiling for inhibitors of Plasmodium falciparum proliferation (AID 504749); also: nearly all actives have a fitted effect of over 60% in size
Measurement conditions: P. falciparum in erythrocytes, SYBR Green DNA, 72 h; series mostly up to 12.8 µM
Results filed as inconclusive are left out. Active and inactive are the calls of the source. Calls follow the shape of the dose curve; as a rule, active = well fitted inhibition curve with a large enough effect; inconclusive = small, poorly fitted or top-dose-only effect; inactive = flat fitted curve, though single readings scatter.
Log the outcome using a class from class 1 for active, class 0 for inactive

# count of solved cases: 3
Task: Tell me the recorded outcome of this test for C[C@H]1CC[C@]2(OC1)O[C@@H]1C[C@@H]3[C@@H]4CC[C@H]5C[C@@H](O)CC[C@]5(C)[C@@H]4CC(=O)[C@@]3(C)[C@H]1[C@@H]2C .
Output: class 0

Task: Tell me the recorded outcome of this test for C[C@@H]1Cc2ccccc2N1NC(=O)c1ccc(Cl)c(S(N)=O)c1 (stereo partly specified) .
Output: class 0

Task: Tell me the recorded outcome of this test for COc1ccc(OC)c([C@H](O)CNC(=O)CN)c1 .
Output: class 0

---
Task: Tell me the recorded outcome of this test for CC1(C)[C@@H](OC(=O)CCC(=O)O)CC[C@@]2(C)[C@H]1CC[C@@]1(C)[C@H]2C(=O)C=C2[C@H]3C[C@](C)(C(=O)O)CC[C@]3(C)CC[C@@]21C .
Output: class 0

Task: Tell me the recorded outcome of this test for COCC(=O)Nc1c(I)c(C(=O)NC[C@@H](O)CO)c(I)c(C(=O)N(C)C[C@@H](O)CO)c1I .
Output: class 0

Task: Tell me the recorded outcome of this test for O=C(N/N=C\c1ccc([N+](=O)[O-])o1)c1ccc(O)cc1 .
Output: class 1

###

Study system: Cytochrome P450 2C9 (Homo sapiens) (UniProt P11712)
Sequence (P11712 whole entry, looked up): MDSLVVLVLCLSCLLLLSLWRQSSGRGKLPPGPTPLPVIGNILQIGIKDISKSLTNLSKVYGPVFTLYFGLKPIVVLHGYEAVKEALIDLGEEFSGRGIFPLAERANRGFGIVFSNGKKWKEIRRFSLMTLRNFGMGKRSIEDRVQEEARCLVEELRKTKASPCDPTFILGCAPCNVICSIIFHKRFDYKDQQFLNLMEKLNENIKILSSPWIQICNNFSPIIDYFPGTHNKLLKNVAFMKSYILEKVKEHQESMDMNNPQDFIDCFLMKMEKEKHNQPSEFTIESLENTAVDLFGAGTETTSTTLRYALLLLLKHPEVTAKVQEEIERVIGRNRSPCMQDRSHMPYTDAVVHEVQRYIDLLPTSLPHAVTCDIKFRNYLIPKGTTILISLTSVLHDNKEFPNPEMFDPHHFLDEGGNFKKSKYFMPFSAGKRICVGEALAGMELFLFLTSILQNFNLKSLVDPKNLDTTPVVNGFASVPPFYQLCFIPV
Measurement description: Cytochrome P450 family 2 subfamily C member 9 (CYP2C9) small molecule antagonists: luciferase biochemical (cell-free) qHTS assay (AID 1645842); also: nearly all actives have a fitted effect of over 55% in size
Measurement conditions: P450-Glo CYP2C9 enzyme assay, luciferin luminescence; series mostly up to 57.4 µM
Records with an inconclusive call do not appear. Active and inactive are the calls of the source. Calls follow the shape of the dose curve; as a rule, active = well fitted inhibition curve with a large enough effect in the repeat runs; inconclusive = weak or mixed curves; inactive = no such curve, though single readings can be large or run the other way.
Log the outcome using a class from active, inactive

# count of solved cases: 3
Task: Tell me the recorded outcome of this test for Nc1ccn(C2O[C@H](CO)[C@@H](O)[C@@H]2O)c(=O)n1 (some centres undefined) .
Output: inactive

Task: Tell me the recorded outcome of this test for Cc1ccc(C)c(Nc2nc3nonc3nc2Nc2cccc(C)c2C)c1 .
Output: inactive

Task: Tell me the recorded outcome of this test for CCc1ccc(OCCn2c(C3CC(=O)N(Cc4ccc(F)cc4)C3)nc3ccccc32)cc1 (centres undefined) .
Output: inactive

---
Task: Tell me the recorded outcome of this test for COc1ccc(C(=O)NC(c2ccccc2Cl)c2cc(Cl)c3cccnc3c2O)cc1 (centres undefined) .
Output: active

Task: Tell me the recorded outcome of this test for COc1ccc(NC(=O)c2cnc[nH]2)cc1S(=O)(=O)Nc1ccc(Br)cc1 .
Output: active

Task: Tell me the recorded outcome of this test for COc1cc(NC(=O)CSc2nc3ccccc3nc2Cc2ccccc2OC)cc(OC)c1 .
Output: active

Task: Tell me the recorded outcome of this test for CCc1ccc(-n2c(SCc3ccccc3Cl)nc3[nH]ncc3c2=O)cc1 .
Output: active

Task: Tell me the recorded outcome of this test for COc1ccc(CC2c3cc(OC)c(OC)cc3CCN2CCC(=O)OCCCCCOC(=O)CCN2CCc3cc(OC)c(OC)cc3C2Cc2ccc(OC)c(OC)c2)cc1OC (centres undefined) .
Output: active

Task: Tell me the recorded outcome of this test for NCC1OC(OC2C(N)CC(N)C(OC3OC(CO)C(O)C(N)C3O)C2O)C(N)CC1O (centres undefined) .
Output: inactive

###

Study system: Rap guanine nucleotide exchange factor 3 (Homo sapiens) (UniProt O95398)
Sequence (O95398 whole entry, looked up): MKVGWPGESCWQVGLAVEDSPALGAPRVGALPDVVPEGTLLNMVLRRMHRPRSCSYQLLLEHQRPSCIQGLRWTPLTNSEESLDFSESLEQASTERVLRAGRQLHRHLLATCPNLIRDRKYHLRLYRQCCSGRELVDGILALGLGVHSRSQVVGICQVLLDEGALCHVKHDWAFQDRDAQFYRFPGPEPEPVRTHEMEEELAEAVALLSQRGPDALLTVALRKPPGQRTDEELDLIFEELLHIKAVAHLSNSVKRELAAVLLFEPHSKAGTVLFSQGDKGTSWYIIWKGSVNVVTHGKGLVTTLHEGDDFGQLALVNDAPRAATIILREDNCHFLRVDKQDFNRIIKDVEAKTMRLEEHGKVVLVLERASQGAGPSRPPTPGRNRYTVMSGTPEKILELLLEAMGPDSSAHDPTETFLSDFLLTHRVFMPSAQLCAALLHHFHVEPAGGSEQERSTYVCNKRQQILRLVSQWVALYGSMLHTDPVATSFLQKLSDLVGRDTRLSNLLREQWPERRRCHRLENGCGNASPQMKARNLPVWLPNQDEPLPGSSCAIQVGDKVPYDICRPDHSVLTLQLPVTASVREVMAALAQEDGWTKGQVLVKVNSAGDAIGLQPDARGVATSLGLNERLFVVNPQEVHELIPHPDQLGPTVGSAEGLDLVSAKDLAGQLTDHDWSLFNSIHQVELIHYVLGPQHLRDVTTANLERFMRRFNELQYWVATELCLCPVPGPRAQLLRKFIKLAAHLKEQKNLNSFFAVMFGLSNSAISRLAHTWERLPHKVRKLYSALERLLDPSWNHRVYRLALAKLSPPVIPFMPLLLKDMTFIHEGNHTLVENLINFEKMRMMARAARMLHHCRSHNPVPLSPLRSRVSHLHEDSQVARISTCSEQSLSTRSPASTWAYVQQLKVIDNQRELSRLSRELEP
Measurement description: Confirmatory qHTS for agonist of cAMP-regulated guanine nucleotide exchange factor 3 (EPAC1) (AID 1645881); also: nearly all actives have a fitted effect of over 75% in size;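 as to activation: EPAC1 catalysed release of BODIPY-GDP from Rap1B seen as fluorescence loss; 100% = effect of cAMP agonist control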
Measurement conditions: EPAC1 Rap1B BODIPY-GDP exchange fluorescence; series mostly up to 154 µM
Records with an inconclusive call do not appear. The source made the active and inactive calls. Calls follow the shape of the dose curve; as a rule, active = well fitted activation curve with a large enough effect; inconclusive = small, poorly fitted or top-dose-only effect; inactive = no such curve, though single readings can be large or run the other way.
Log the outcome using a class from T (active), F (inactive)

# count of solved cases: 4
Task: Tell me the recorded outcome of this test for Nc1ccc2c3c(cccc13)-c1ccccc1-2 .
Output: T

Task: Tell me the recorded outcome of this test for COC(=O)c1c(NC(=O)c2c(OC)cccc2OC)sc2c1CCCC2 .
Output: F

Task: Tell me the recorded outcome of this test for O=C(c1ccc(Br)o1)N1CCN(c2ccc3nnc(-c4ccc(F)cc4)n3n2)CC1 .
Output: F

Task: Tell me the recorded outcome of this test for COc1ccc(/C=C2/SC(=S)N(NS(=O)(=O)c3ccccc3)C2=O)cc1 .
Output: F

Now turn to the next compound.
Task: Tell me the recorded outcome of this test for COc1cccc(C2=NN(C(C)=O)C(c3cccs3)C2)c1 (stereo not given) .
Output: F

###

Measurement description: qHTS Assay for Lipid Storage Modulators (AID 1519)
Measurement conditions: Drosophila S3 cells, BODIPY lipid droplet/cell ratio, laser cytometry; measured here: lipid channel max response; cells loaded with oleic acid
Results filed as inconclusive are left out.
max response by entry:
All answers are understood in %, so give the number only.

For reference, reported max response for O=c1c(O)c(-c2ccccc2)oc2cccc(O)c12 stands at 18.2

###

Study system: Rap guanine nucleotide exchange factor 3 (Homo sapiens)
Measurement description: Confirmatory qHTS for agonist of cAMP-regulated guanine nucleotide exchange factor 3 (EPAC1) (AID 1645881); also: nearly all actives have a fitted effect of over 75% in size;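 as to activation: EPAC1 catalysed release of BODIPY-GDP from Rap1B seen as fluorescence loss; 100% = effect of cAMP agonist control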
Measurement conditions: EPAC1 Rap1B BODIPY-GDP exchange fluorescence; series mostly up to 154 µM
Records with an inconclusive call do not appear. Activity calls are given as the source filed them. Calls follow the shape of the dose curve; as a rule, active = well fitted activation curve with a large enough effect; inconclusive = small, poorly fitted or top-dose-only effect; inactive = no such curve, though single readings can be large or run the other way.
Log the outcome using a class from 1 for active, 0 for inactive

Task: Tell me the recorded outcome of this test for O=C(O)c1ccccc1N/N=C/C1=C(N2CCOCC2)C(=C\c2ccccc2)/CC1 .
Output: 0

Task: Tell me the recorded outcome of this test for Cc1cscc1-c1ccc(C(=O)Nc2c(C)cccc2C)o1 .
Output: 0

Task: Tell me the recorded outcome of this test for COc1ccccc1Cn1c(=O)oc2ccc(C)cc21 .
Output: 0

Task: Tell me the recorded outcome of this test for Cc1nc(SCC(=O)N2CCCCCC2)[nH]c(=O)c1C .
Output: 0

---
Task: Tell me the recorded outcome of this test for C(=C\c1ccccc1)/CN1CCN(C(c2cc3ccccc3o2)c2nnnn2C2CCCC2)CC1 (centres undefined) .
Output: 0

Task: Tell me the recorded outcome of this test for COc1ccc(NC(=O)Cn2c(SCc3cc(C)ccc3C)nc3ccncc32)c(OC)c1OC .
Output: 0

###

Study system: Rap guanine nucleotide exchange factor 3 (Homo sapiens) (UniProt O95398)
Measurement description: Counterscreen qHTS for antagonist of cAMP-regulated guanine nucleotide exchange factor 3 (EPAC1) (AID 1645888);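 also: fluorescence loss as bound BODIPY-GDP is released from Rap1B; % of control where 0% means no effect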
Measurement conditions: Rap1B-BODIPY-GDP nucleotide exchange, fluorescence; series mostly up to 154 µM
Inconclusive results are not listed. Calls of active or inactive are those of the source. Calls follow the shape of the dose curve; as a rule, active = well fitted inhibition curve with a large enough effect; inconclusive = small, poorly fitted or top-dose-only effect; inactive = no such curve, though single readings can be large or run the other way.
Measured endpoint: activity change, negative = inhibition

Here is how some molecules turned out for activity change, negative = inhibition.
For reference, reported activity change, negative = inhibition for CCOC(=O)CSc1nc(C)c2cc(C)c(C)cc2n1 stands at inactive

For reference, reported activity change, negative = inhibition for CCCN1C(=O)c2ccccc2NC1c1ccc(OC)cc1OC (stereo not drawn) stands at inactive

For reference, reported activity change, negative = inhibition for N#C/C(=C(/O)CCl)c1nc2c(s1)CCc1ccccc1-2 stands at inactive

For reference, reported activity change, negative = inhibition for C=CCn1c(C)cc(C(=O)Cn2ncc(Cl)c(Cl)c2=O)c1C stands at inactive

For reference, reported activity change, negative = inhibition for C=CCn1c(-c2ccc(S(=O)(=O)N3CCOCC3)cc2)csc1=Nc1ccccc1 stands at inactive

---
For reference, reported activity change, negative = inhibition for C=CCN(CC=C)Cc1cc(=O)oc2cc(OC)ccc12 stands at -16% [at 30.8 µM] (inactive)

For reference, reported activity change, negative = inhibition for CC(=O)N1N=C(N)SC1c1ccc(Cl)c(Cl)c1 (stereo not drawn) stands at -0.904% [at 30.8 µM] (inactive)

For reference, reported activity change, negative = inhibition for CN(CCc1ccccn1)C(=O)Nc1ccc(F)cc1 stands at inactive

For reference, reported activity change, negative = inhibition for COc1ccc(C=NNc2ccc([N+](=O)[O-])cc2S(=O)(=O)Nc2ccccc2C(=O)O)cc1OC stands at -11.2% [at 30.8 µM] (inactive)

For reference, reported activity change, negative = inhibition for COc1ccc(/C=C2\SC(=S)N(NS(=O)(=O)c3ccc(C)cc3)C2=O)c(OC)c1 stands at 7.67% [at 30.8 µM] (inactive)

For reference, reported activity change, negative = inhibition for CC(C)CCNC1c2ccccc2C(=O)N1Cc1ccccc1 (stereo not drawn) stands at -10.7% [at 30.8 µM] (inactive)

For reference, reported activity change, negative = inhibition for O=C(CCCc1ccccc1)NCc1cn2ccsc2n1 stands at inactive

For reference, reported activity change, negative = inhibition for O=C(NCCCn1ccnc1)c1cc(-c2cccnc2)nc2ccc(Br)cc12 stands at inactive

For reference, reported activity change, negative = inhibition for Cc1nc(Cl)sc1C(=O)NC(C)c1ccc(Cl)cc1 (stereo not drawn) stands at inactive

For reference, reported activity change, negative = inhibition for CCCC(=O)N1c2nc(C(C)C)nn2C2(CCCCC2)[C@@H]2CCCC[C@@H]21 stands at inactive

For reference, reported activity change, negative = inhibition for CC1(C)Cc2c(C#N)c(N3CCN(C(=O)c4ccccc4Cl)CC3)nc(-c3ccco3)c2CS1 stands at inactive

For reference, reported activity change, negative = inhibition for COc1ccc(C(=O)Nc2ccc(-c3cc4ccccc4oc3=O)c(C)c2)cc1Br stands at inactive

For reference, reported activity change, negative = inhibition for CCCCCC(=O)Nc1ccc(C2C(=O)c3ccccc3C2=O)cc1 stands at inactive

For reference, reported activity change, negative = inhibition for COc1cc2c(cc1OC)C(c1ccccc1)N(C(=O)c1ccco1)CC2 (stereo not drawn) stands at inactive

For reference, reported activity change, negative = inhibition for COc1ccc(-c2onc3ccc(C(C)=O)cc23)cc1 stands at inactive

For reference, reported activity change, negative = inhibition for S=C(NCCCN1CCOCC1)Nc1cccc(-c2nnc3n2CCCCC3)c1 stands at inactive

For reference, reported activity change, negative = inhibition for C=CCN(c1ccccc1)S(=O)(=O)c1cccc(C(=O)N2CC(C)CC(C)C2)c1 (stereo not drawn) stands at inactive

For reference, reported activity change, negative = inhibition for COc1ccccc1/C=C/C=C1\Oc2c(ccc(O)c2CN2CCN(CCO)CC2)C1=O stands at inactive
